testedTarget: Androgen receptor (AR) (Homo sapiens, UniProt P10275, T878A)
Construct: 5.5×10^5 LNCap cells were injected into each well of a 6-well plate; endogenous in cells; host or cells: LNCaP
Sequence (P10275 whole entry T878A): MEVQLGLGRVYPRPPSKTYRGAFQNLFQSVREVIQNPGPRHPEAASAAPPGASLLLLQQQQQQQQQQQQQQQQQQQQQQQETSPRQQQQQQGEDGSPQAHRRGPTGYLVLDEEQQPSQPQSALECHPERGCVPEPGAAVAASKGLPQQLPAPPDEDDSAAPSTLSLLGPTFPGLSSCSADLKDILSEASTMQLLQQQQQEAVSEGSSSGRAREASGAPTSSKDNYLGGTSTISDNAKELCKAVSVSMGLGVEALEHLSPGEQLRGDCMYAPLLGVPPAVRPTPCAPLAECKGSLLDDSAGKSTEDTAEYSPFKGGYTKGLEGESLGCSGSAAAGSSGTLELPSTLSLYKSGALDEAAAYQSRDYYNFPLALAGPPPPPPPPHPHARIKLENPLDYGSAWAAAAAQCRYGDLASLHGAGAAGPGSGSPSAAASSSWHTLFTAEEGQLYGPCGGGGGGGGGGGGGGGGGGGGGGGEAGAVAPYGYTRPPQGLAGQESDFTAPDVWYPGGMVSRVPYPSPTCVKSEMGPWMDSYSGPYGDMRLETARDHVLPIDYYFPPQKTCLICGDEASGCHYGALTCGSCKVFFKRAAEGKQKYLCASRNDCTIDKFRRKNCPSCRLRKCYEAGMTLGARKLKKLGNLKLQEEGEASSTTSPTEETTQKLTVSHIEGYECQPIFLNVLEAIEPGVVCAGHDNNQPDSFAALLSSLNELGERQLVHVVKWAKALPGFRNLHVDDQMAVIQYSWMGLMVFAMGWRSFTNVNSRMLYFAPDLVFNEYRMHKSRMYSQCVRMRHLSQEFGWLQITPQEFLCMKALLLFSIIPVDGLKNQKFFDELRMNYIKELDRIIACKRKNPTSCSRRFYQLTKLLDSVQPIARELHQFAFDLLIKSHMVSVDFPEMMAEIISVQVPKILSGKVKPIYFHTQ
assayExplanation: Assessment of AR proteolytic activity (Western blotting of LNCap cell lysates)
Assay type: cell-based
runConditions: 24 hours of treatment, Western blotting quantified with Image J
readoutLabel: Degradation (1 μM treated in LNCaP, % AR remaining) (%)
Please respond with the number in % and leave the unit unwritten.

Enquiry: Given CC1(C)[C@H](NC(=O)c2ccc(N3CCN(CC4CCN(c5ccc6c(=O)n(C7CCC(=O)NC7=O)nnc6c5)CC4)CC3)cc2)C(C)(C)[C@H]1Oc1ccc(C#N)c(Cl)c1 (some centres unmarked) [Example 12] , state its recorded Degradation (1 μM treated in LNCaP, % AR remaining).
Return: 7

Enquiry: Given CC1(C)C(NC(=O)c2ccc(C3CCN(CCOC4CCN(c5ccc6nnn(C7CCC(=O)NC7=O)c(=O)c6c5)CC4)CC3)cc2)C(C)(C)C1Oc1ccc(C#N)c(Cl)c1 (centres unmarked) [Example 76] , state its recorded Degradation (1 μM treated in LNCaP, % AR remaining).
Return: 30

Enquiry: Given CC1(C)[C@H](NC(=O)c2ccc(N3CCN(CC4CCN(C(=O)CNc5ccc6nnn(C7CCC(=O)NC7=O)c(=O)c6c5)CC4)CC3)cc2)C(C)(C)[C@H]1Oc1ccc(C#N)c(Cl)c1 (some centres unmarked) [Example 9] , state its recorded Degradation (1 μM treated in LNCaP, % AR remaining).
Return: 39.9

Enquiry: Given CC1(C)[C@H](NC(=O)c2ccc(N3CCN(C4CC5(CCN(C(=O)COc6ccc7nnn(C8CCC(=O)NC8=O)c(=O)c7c6)CC5)C4)CC3)cc2)C(C)(C)[C@H]1Oc1ccc(C#N)c(Cl)c1 (some centres unmarked) [Example 18] , state its recorded Degradation (1 μM treated in LNCaP, % AR remaining).
Return: 23

Enquiry: Given CC1(C)C(NC(=O)c2ccc(C#CCN3CCC4(CC3)CN(c3ccc5nnn(C6CCC(=O)NC6=O)c(=O)c5c3)C4)nc2)C(C)(C)C1Oc1ccc(C#N)c(Cl)c1 (centres unmarked) [Example 182] , state its recorded Degradation (1 μM treated in LNCaP, % AR remaining).
Return: 16

----------
Test system: VCaP cells
assayExplanation: Cytotoxicity assessment (Cell-titer-glo cell viability), VCaP
runConditions: read-out: VCaP (CC50); VCaP cells, 6 days of treatment, Cell-titer-glo, vs DMSO
Define the label as T when CC50 is strictly less than 20 nM and as F in all remaining cases.

Enquiry: Confirm or reject: CC50 of CC1(C)C(NC(=O)c2ccc(N3CCN(CC4(O)CCN(C(=O)C5CCN(c6ccc7nnn(C8CCC(=O)NC8=O)c(=O)c7c6)CC5)CC4)CC3)cc2)C(C)(C)C1Oc1ccc(C#N)c(Cl)c1 (centres unmarked) lies strictly below 20 nM
Return: F

Enquiry: Confirm or reject: CC50 of CC1(C)C(NC(=O)c2ccc(-n3cc(C4CCN(C(=O)C5CCN(c6ccc7nnn(C8CCC(=O)NC8=O)c(=O)c7c6)CC5)CC4)nn3)cc2)C(C)(C)C1Oc1ccc(C#N)c(Cl)c1 (centres unmarked) lies strictly below 20 nM
Return: T

Enquiry: Confirm or reject: CC50 of CC1(C)C(NC(=O)c2ccc(-n3cc(CNC(=O)C4CCN(c5ccc6nnn(C7CCC(=O)NC7=O)c(=O)c6c5)CC4)nn3)cc2)C(C)(C)C1Oc1ccc(C#N)c(Cl)c1 (centres unmarked) lies strictly below 20 nM
Return: F

Enquiry: Confirm or reject: CC50 of CC1(C)C(NC(=O)c2ccc(C#CC3CCN(CC4CCN(C(=O)COc5ccc6nnn(C7CCC(=O)NC7=O)c(=O)c6c5)CC4)CC3)nc2)C(C)(C)C1Oc1ccc(C#N)c(Cl)c1 (centres unmarked) lies strictly below 20 nM
Return: T

Enquiry: Confirm or reject: CC50 of CC1(C)C(NC(=O)c2ccc(C#CC3CCN(C(=O)C4CCN(c5ccc6nnn(C7CCC(=O)NC7=O)c(=O)c6c5)CC4)CC3)cc2)C(C)(C)C1Oc1ccc(C#N)c(Cl)c1 (centres unmarked) lies strictly below 20 nM
Return: T

Enquiry: Confirm or reject: CC50 of CC1(C)C(NC(=O)c2ccc(-n3cc(CN4CCN(C(=O)C5CN(c6ccc7nnn(C8CCC(=O)NC8=O)c(=O)c7c6)C5)CC4)nn3)cc2)C(C)(C)C1Oc1ccc(C#N)c(Cl)c1 (centres unmarked) lies strictly below 20 nM
Return: T

Enquiry: Confirm or reject: CC50 of CC1(C)C(NC(=O)c2ccc(-n3cc(CCOCCOCCNC(=O)C4CN(c5ccc6nnn(C7CCC(=O)NC7=O)c(=O)c6c5)C4)nn3)cc2)C(C)(C)C1Oc1ccc(C#N)c(Cl)c1 (centres unmarked) lies strictly below 20 nM
Return: F
